Test system: BT-549 breast
procedureDetails: NCI-60 one-dose screen, 48 h (100 = growth as untreated, 0 = no growth, -100 = all killed)
statedConditions: 10 µM unless noted
Compounds without any hit were thinned out: in the full panel of roughly 83,000, 20% have a hit.
quantityName: growth (%)

{"molecule": "CCCCCCCCCCCCCCCCNC(=O)OC(C)C", "quantityName": "growth", "endpointUnit": "%", "valueReported": 95.8}
{"molecule": "CC(=O)c1cc2c(N)c(C(=O)Nc3cccc4c3OCCO4)sc2nc1C", "quantityName": "growth", "endpointUnit": "%", "valueReported": 103}
{"molecule": "O=C1NN(C(=O)c2ccc(Cl)cc2)C(c2ccccc2)=N/C1=C\\c1cn(-c2ccccc2)nc1-c1ccccc1", "quantityName": "growth", "endpointUnit": "%", "valueReported": 101}
{"molecule": "CCCCOc1ccc(/C=C2/SC(N3CCCC3)=NC2=O)cc1", "quantityName": "growth", "endpointUnit": "%", "valueReported": 90.9}
{"molecule": "O=C1/C(=C/c2ccc(Cl)cc2)CN(C(=O)CCN2CCC(=NO)CC2)C/C1=C\\c1ccc(Cl)cc1", "quantityName": "growth", "endpointUnit": "%", "valueReported": -88}
{"molecule": "N[C@H]1CN(C(=O)c2cc3cc(Br)c(F)c(F)c3[nH]2)C[C@@H]1O", "quantityName": "growth", "endpointUnit": "%", "valueReported": 89.5}
{"molecule": "COc1ccc(NC(=O)c2c(Nc3ccc(OC)cc3OC)n[nH]c2N)c(OC)c1", "quantityName": "growth", "endpointUnit": "%", "valueReported": 93.7}
{"molecule": "Cn1c(=O)cc(NC(=O)CN2CCN(c3cc4c(cc3F)c(=O)c(C(=O)O)cn4C3CC3)CC2)[nH]c1=O", "quantityName": "growth", "endpointUnit": "%", "valueReported": 105}
{"molecule": "CC[N+](CC)=c1cc2oc3cc(N(C)C)ccc3nc-2cc1C", "quantityName": "growth", "endpointUnit": "%", "valueReported": 60.2}
{"molecule": "CC1=C(C#N)C(=O)NC(C)C1 (stereo not given)", "quantityName": "growth", "endpointUnit": "%", "valueReported": 101}
